Provenance of the data: the supplement of paper PMC10065799

Test system: AncSZ
Experiment: phosphorylation enrichment, bacterial display (enrichment ratio); higher = better substrate or ligand; peptides without Tyr show the background

seq: RSDSSYRMSAT [NHS_Y1532]
phosphorylation enrichment: 0.764
//
seq: PLDGEYFSLQI [TP53_Y327_T329S]
phosphorylation enrichment: 3.12
//
seq: GCRSKYVGLWR [KCNQ1_Y184_G189R]
phosphorylation enrichment: 0.638
//
seq: PAVGIYNGNIN [CDCP1_Y707_D709G]
phosphorylation enrichment: 0.67
//
seq: LSNPAYCLLLA [DDR1_Y513_R514C]
phosphorylation enrichment: 1.5

###

Target: c-Src SH2;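 also: peptide library displayed on the E. coli surface as eCPX fusions, selected cells deep-sequenced, score is each peptide's frequency after selection divided by its frequency in the input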
Experiment: SH2 binding enrichment of the phosphorylated peptide, bacterial display (enrichment ratio); higher = better substrate or ligand; peptides without Tyr show the background

seq: DDIPLYLKGGV [COX7A2_Y44_E40D]
SH2 binding enrichment: 0.479
//
seq: GDPTEYYSTAI [IGSF22_Y501]
SH2 binding enrichment: 0.619
//
seq: QTPVLYAMLFH [MPZ_Y220_D224Y_YF]
SH2 binding enrichment: 0.601
//
seq: NKHTTYTMEHI [ACTN1_Y708_N707T]
SH2 binding enrichment: 0.565

###

Biological target: FGFR3 (UniProt P22607)
Sequence (P22607 whole entry, looked up): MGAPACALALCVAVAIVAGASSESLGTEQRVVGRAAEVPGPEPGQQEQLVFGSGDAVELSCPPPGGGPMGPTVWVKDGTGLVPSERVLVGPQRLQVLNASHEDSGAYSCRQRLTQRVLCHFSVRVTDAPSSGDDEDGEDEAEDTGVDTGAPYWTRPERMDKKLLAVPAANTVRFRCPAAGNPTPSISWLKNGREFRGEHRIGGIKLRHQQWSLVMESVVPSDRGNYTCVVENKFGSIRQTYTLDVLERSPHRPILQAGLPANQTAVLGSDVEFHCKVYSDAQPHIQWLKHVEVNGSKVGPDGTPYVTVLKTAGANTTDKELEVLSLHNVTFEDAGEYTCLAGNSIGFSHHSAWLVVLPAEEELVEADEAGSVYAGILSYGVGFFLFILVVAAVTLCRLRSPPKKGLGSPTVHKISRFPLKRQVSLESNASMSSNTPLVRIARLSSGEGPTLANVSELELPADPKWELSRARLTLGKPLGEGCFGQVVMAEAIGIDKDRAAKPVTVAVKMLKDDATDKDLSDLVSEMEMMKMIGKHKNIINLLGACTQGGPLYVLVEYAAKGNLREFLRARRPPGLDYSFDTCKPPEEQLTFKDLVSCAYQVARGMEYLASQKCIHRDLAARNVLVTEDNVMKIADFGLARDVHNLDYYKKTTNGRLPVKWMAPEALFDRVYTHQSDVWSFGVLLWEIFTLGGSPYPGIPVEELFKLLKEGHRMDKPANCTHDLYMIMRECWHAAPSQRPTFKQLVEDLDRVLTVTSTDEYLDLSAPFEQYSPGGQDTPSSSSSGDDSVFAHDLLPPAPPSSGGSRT
Assay: phosphorylation enrichment, bacterial display (enrichment ratio); higher = better substrate or ligand; peptides without Tyr show the background
measured property: phosphorylation enrichment

seq: SGKSEYLLPVA [MYLK_Y611_R607G]
reported result: 0.554
//
seq: DGTIVYTGLET [USH2A_Y4487]
reported result: 0.636
//
seq: DDIPLYLKGGV [COX7A2_Y44_E40D]
reported result: 0.737
//
seq: NRNVRYLTLDI [AKR1C2_Y305]
reported result: 0.499
//
seq: NSRYTYKLEVK [USH2A_Y3747]
reported result: 0.687
//
seq: PMDGEYFTLQI [TP53_Y327_L323M]
reported result: 9.07
//
seq: VVKLTYNENDN [CAMKK2_Y183_A182T]
reported result: 0.564
//
seq: FSQQTYYRVSN [ABCD1_Y180]
reported result: 4.51
//
seq: EPNSRYTYKLE [USH2A_Y3745]
reported result: 0.534
//
seq: VFAANYFKLLG [ROR2_Y645_D644N_YF]
reported result: 1.58
//
seq: ERPGVHTNVVE [F11_Y608_Y608H]
reported result: 0.754
//
seq: VLICAYLLHRG [PTEN_Y138_M134L]
reported result: 0.809
//
seq: LKLIQYHLTQQ [AKAP4_Y554]
reported result: 0.879
//
seq: RKRQFYLFKGK [RSPO4_Y112_C107R_YF]
reported result: 0.803
//
seq: TSIGNYFKPWF [DHCR24_Y299_N294T_YF]
reported result: 1.23
//
seq: FNSLLYQVPTS [CALCOCO2_Y358_P357L]
reported result: 1.32
//
seq: SLFNGYVFSGV [NEIL3_Y71_YF]
reported result: 0.584
//
seq: QDGFSYPSRQM [LDLR_Y847_YF]
reported result: 0.325
//
seq: ELTTCYRKKCS [CCBE1_Y70_C75S]
reported result: 0.501
//
seq: GYITSYREEEQ
reported result: 0.711
//
seq: EKKDLYKAGEQ [CFH_Y1008_V1007L]
reported result: 0.647
//
seq: NSFKYYMSDDI [ATRX_Y204_C200S]
reported result: 0.659
//
seq: GHEYIYVDPMQ [PDGFRA_Y574]
reported result: 11.6
//
seq: IMITDYLLLFR [INSR_Y87]
reported result: 1.2
//
seq: TLPAFYMENFS [GLB1_Y552_G554E]
reported result: 0.855
//
seq: SVMAEYGLFRA [VSX2_Y219_G223R_YF]
reported result: 0.538
//
seq: DEGVNHFMSKG [FBXO8_Y156_Y156H]
reported result: 0.504
//
seq: FQKDVYDIPPS [NEDD9_Y177_YF]
reported result: 0.559
//
seq: LNRAGYCDALE [MTUS1_Y151_C148R]
reported result: 0.994
//
seq: TLSGIYQFNIA [FOXL2_Y81_I84N_YF]
reported result: 0.539
//
seq: VTRKEYFIFLE [CAMKV_Y95]
reported result: 0.838
//
seq: GGRIDYIAGLV [APRT_Y60_D65V]
reported result: 0.717
//
seq: NKVKFYIPYMN [NCR1_Y84_D87Y]
reported result: 0.655
//
seq: YADGVYQALEE [DUOX2_Y70]
reported result: 0.809
//
seq: GCRSKSVGLWG [KCNQ1_Y184_Y184S]
reported result: 0.382
//
seq: DRLAVCIDRVR [LMNA_Y45_Y45C]
reported result: 0.682
//
seq: ERRLIYTSDPK [VPS13D_Y864]
reported result: 0.372
//
seq: ANYTEYVATRW [CDKL5_Y171]
reported result: 2.27
//
seq: QDRTYYERVRT [SPEN_Y633_S635R]
reported result: 0.697
//
seq: FVFSFYHAFSG [ACTN4_Y265_S262F_YF]
reported result: 0.693
//
seq: PATFTYDEFKK [COL8A2_Y648_YF]
reported result: 1.12
//
seq: VFFGSYSCPFG [NKAP_Y104_R106C_YF]
reported result: 0.92
//
seq: RLGVTYEQALA [MAP2_Y996_G991R]
reported result: 0.825
//
seq: TLEKFYFAFPG [SLC1A1_Y51]
reported result: 6.62
//
seq: LSSEMYVKSYT [F5_Y2149]
reported result: 1.12
//
seq: QTPVLYAMLFH [MPZ_Y220_D224Y_YF]
reported result: 2.13
//
seq: TNITEYCRDLI [RECQL_Y492_K487T]
reported result: 0.743
//
seq: MSSAGYRAAEG [COL6A3_Y543_T538M]
reported result: 0.444
//
seq: TLSGIYQFSIA [FOXL2_Y81_I84S_YF]
reported result: 0.952
